- systemUnderTest: human S1P3 receptor (Homo sapiens)
- Sequence (Q99500 whole entry): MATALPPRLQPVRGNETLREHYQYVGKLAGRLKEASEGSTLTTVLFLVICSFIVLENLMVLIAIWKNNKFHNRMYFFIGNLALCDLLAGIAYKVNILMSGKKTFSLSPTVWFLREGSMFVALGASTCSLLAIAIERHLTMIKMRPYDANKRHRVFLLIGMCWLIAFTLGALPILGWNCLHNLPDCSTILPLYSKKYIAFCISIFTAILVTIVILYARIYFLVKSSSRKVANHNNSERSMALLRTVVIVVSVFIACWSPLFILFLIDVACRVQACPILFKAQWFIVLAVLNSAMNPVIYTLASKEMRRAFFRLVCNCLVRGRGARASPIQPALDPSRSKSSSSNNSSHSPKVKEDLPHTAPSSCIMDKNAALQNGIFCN
- protocolNotes: S1P3 FLIPR Ca2+ assay in T24 cells stably expressing the human S1P3 receptor
- setupConditions: tested over 0.61 nM to 10,000 nM, read-out: IC50, activity potency human S1P3 receptor from FLIPR
- Experimental: The compounds of the invention were tested for S1P3 activity using the Flipr assay. The compounds may be assessed for ability to activate or block activation of the human S1P3 receptor in T24 cells stably expressing the human S1P3 receptor. Ten thousand cells/well are plated into 384-well poly-D-lysine coated plates one day prior to use. […] Extracellular dye is removed by washing the cell plates four times prior to placing the plates in the FLIPR (Fluorometric Imaging Plate Reader, Molecular Devices). […]
measure: IC50 (nM)

| molecule | unitInfo | IC50 |
| --- | --- | --- |
| O=C(NC(Nc1ccc(Cl)cc1)C(Cl)(Cl)Cl)c1ccc(Cl)cc1 (stereo not shown) | nM | 145 |

[I] O=C(NC(Nc1ccccc1)C(Cl)(Cl)Cl)c1ccc(Br)cc1 (stereo not shown)
[II] Cc1ccc(NC(NC(=O)c2ccc(Br)cc2)C(Cl)(Cl)Cl)cc1 (stereo not shown)
## Task For the pair I and II , which entry has the numerically smaller recorded IC50? // return label of chosen record
## Result II
(II: 73 nM, I: 148 nM)
